These data points were gathered from patent US20220144815A1.

Here, each record is paired with measured logP data.
# assayInfo: Log P by HPLC on reversed phase columns, method [a] (EEC directive 79/831 Annex V.A8)
# Assay type: physicochemical
# testContext: log P determined according to method [a] (HPLC on reversed phase columns)
When you answer, write just the number.

Reported logP for FC(F)c1nnc(-c2ccc(Cl)nc2)o1 was 1.92

Reported logP for FC(F)c1nnc(-c2ccc(-c3ccccc3)cc2)o1 was 3.57

Reported logP for Nc1ncc(-c2nnc(C(F)F)o2)cn1 was 0.75

Reported logP for CC(C)(C)OC(=O)N1CCN(c2ccc(-c3nnc(C(F)F)o3)cn2)CC1 was 3.25

Reported logP for CCn1nccc1-c1ncc(-c2nnc(C(F)F)o2)cn1 was 2.18

Reported logP for CC(Nc1ncc(-c2nnc(C(F)F)o2)cn1)C1CC1 (stereo not shown) was 2.51

Others:
Reported logP for FC(F)c1nnc(-c2ccc(Cn3ccnc3)cc2)o1 was 0.60

Reported logP for O=C(O)c1ccc(-c2nnc(C(F)(F)F)o2)cc1 was 2.20

Reported logP for N#Cc1ccc(-c2ncc(-c3nnc(C(F)F)o3)cn2)cc1 was 2.72

Reported logP for CCn1nccc1Nc1ncc(-c2nnc(C(F)F)o2)cn1 was 1.49

* * *

# assayInfo: Log P by HPLC on reversed phase columns, method [a] (EEC directive 79/831 Annex V.A8)
# Assay type: physicochemical
# testContext: log P determined according to method [a] (HPLC on reversed phase columns)
propertyName: logP
When you answer, write just the number.

Here are 8 compounds together with their reported answers.
Reported logP for FC(F)c1nnc(-c2cnc(-c3ccsc3)nc2)o1 [Example I-072] was 2.64

Reported logP for CN(C(=O)c1ccc(-c2nnc(C(F)(F)F)o2)cc1)c1ccccc1 [Example I-026] was 3.04

Reported logP for FC(F)c1nnc(-c2cnc(-c3ccccc3)nc2)o1 [Example I-069] was 2.98

Reported logP for CC1(Nc2ncc(-c3nnc(C(F)F)o3)cn2)CC1 [Example I-066] was 1.90

Reported logP for Fc1ccc(-c2ncc(-c3nnc(C(F)F)o3)cn2)cc1 [Example I-077] was 3.70

Reported logP for O=C(NCC1CC1)c1ccc(-c2nnc(C(F)F)o2)cn1 [Example I-046] was 2.16

Reported logP for COCCNC(=O)c1ccc(-c2nnc(C(F)(F)F)o2)cc1 [Example I-020] was 2.04

Reported logP for O=C(Cc1ccccc1)Nc1ccc(-c2nnc(C(F)F)o2)cn1 [Example I-050] was 2.54

Others:
Reported logP for FC(F)c1nnc(-c2cnc(Cl)nc2)o1 [Example I-061] was 1.55

Reported logP for O=C(Nc1ccc(F)cc1F)c1ccc(-c2nnc(C(F)F)o2)cc1 [Example I-027] was 2.57

Reported logP for CN(C)NC(=O)c1ccc(-c2nnc(C(F)F)o2)cn1 [Example I-042] was 1.14

Reported logP for CNc1ncc(-c2nnc(C(F)F)o2)cn1 [Example I-060] was 1.23

Reported logP for CN(C(=O)c1ccc(-c2nnc(C(F)F)o2)cc1)c1ccccc1 [Example I-022] was 2.46

Reported logP for CN(C)c1ncc(-c2nnc(C(F)F)o2)cn1 [Example I-062] was 1.87

Reported logP for FC(F)c1nnc(-c2ccc(Oc3ccccc3)nc2)o1 [Example I-043] was 2.90

Reported logP for Cc1ccc(NC(=O)c2ccc(-c3nnc(C(F)F)o3)cn2)cc1 [Example I-048] was 3.14

* * *

# Tested on: Puccinia recondita
# assayInfo: Example D: in vivo preventive test (brown rust on wheat)
# testContext: 264 h, 500 ppm of tested compound, preventive spray, evaluated 11 days after inoculation, read-out: efficacy
propertyName: pest or weed control at 500 µg/mL

Here are 5 compounds together with their reported answers.
Reported pest or weed control at 500 µg/mL for COC(=O)c1ccc(C2(Nc3ncc(-c4nnc(C(F)F)o4)cn3)CC2)cc1 [I.180] was 70 to 79%

Reported pest or weed control at 500 µg/mL for Fc1ccccc1C1(Nc2ncc(-c3nnc(C(F)F)o3)cn2)CC1 [I.144] was 90 to 100%

Reported pest or weed control at 500 µg/mL for FC(F)c1nnc(-c2cnc(NC3(c4ccccc4)CCC3)nc2)o1 [I.134] was 70 to 79%

Reported pest or weed control at 500 µg/mL for Fc1cccc(C2(Nc3ncc(-c4nnc(C(F)F)o4)cn3)CC2)c1 [I.145] was 90 to 100%

Reported pest or weed control at 500 µg/mL for Cc1ccccc1C1(Nc2ncc(-c3nnc(C(F)F)o3)cn2)CC1 [I.132] was 80 to 89%

Please find the next compound below.
Reported pest or weed control at 500 µg/mL for COc1ccccc1C1(Nc2ncc(-c3nnc(C(F)F)o3)cn2)CC1 [I.155] was 80 to 89%

* * *

# assayInfo: Log P by HPLC on reversed phase columns, method [a] (EEC directive 79/831 Annex V.A8)
# Format: physicochemical
# testContext: log P determined according to method [a] (HPLC on reversed phase columns)
propertyName: logP
When you answer, write just the number.

Reported logP for FC(F)c1nnc(-c2cnc(-c3ccccc3Cl)nc2)o1 was 3.32

Reported logP for CN(c1ccccc1)c1ncc(-c2nnc(C(F)F)o2)cn1 was 2.80

Reported logP for FC(F)c1nnc(-c2cnc(OCc3ccccc3)nc2)o1 was 2.75

Please find the next compound below.
Reported logP for CCc1noc(-c2ccc(-c3nnc(C(F)F)o3)cc2)n1 was 2.94

* * *

# assayInfo: Log P by HPLC on reversed phase columns, method [a] (EEC directive 79/831 Annex V.A8)
# Type: physicochemical
# testContext: reversed phase HPLC column; Method A: LC-UV, acidic range, 0.1% formic acid in water and acetonitrile; read-out: Log P
propertyName: chromatographic logP
When you answer, write just the number.

Here are 2 molecules together with their reported answers.
Reported chromatographic logP for CCc1noc(-c2ccc(C(=O)NNC(=O)OC(C)(C)C)cc2)n1 was 1.23

Reported chromatographic logP for CC(C)(Nc1ncc(-c2nnc(C(F)F)o2)cn1)c1ccc(F)cc1 was 3.26

Please find the next molecule below.
Reported chromatographic logP for COC(=O)c1ccc(-c2nnc(C(F)(F)F)s2)cc1 was 3.23

* * *

# assayInfo: Log P by HPLC on reversed phase columns, method [a] (EEC directive 79/831 Annex V.A8)
# Type: physicochemical
# testContext: reversed phase HPLC column; log P determined according to method [a] (HPLC on reversed phase columns); read-out: logP
propertyName: chromatographic logP

Reported chromatographic logP for C[C@@H](Nc1ncc(-c2nnc(C(F)F)o2)cn1)c1ccc(F)cc1 [I.125a] was 2.86

Reported chromatographic logP for FC(F)c1nnc(-c2cnc(NCC3(c4ccccc4)CC3)nc2)o1 was 3.25

Please find the next molecule below.
Reported chromatographic logP for CC(C)(Nc1ncc(-c2nnc(C(F)F)o2)cn1)c1c(F)cccc1F was 3.34

* * *

# assayInfo: Log P by HPLC on reversed phase columns, method [a] (EEC directive 79/831 Annex V.A8)
# Assay type: physicochemical
# testContext: reversed phase HPLC column; log P determined according to method [a] (HPLC on reversed phase columns); read-out: logP
propertyName: chromatographic logP
When you answer, write just the number.

Reported chromatographic logP for FC(F)c1nnc(-c2cnc(NC3(c4ccccc4)CCC3)nc2)s1 was 3.54

Reported chromatographic logP for FC(F)c1nnc(-c2cnc(-c3cccc(Cl)c3)nc2)o1 was 4.21

Reported chromatographic logP for FC(F)c1nnc(-c2cnc(OC3(c4ccccc4)COC3)nc2)o1 was 2.51

Reported chromatographic logP for CCC(Nc1ncc(-c2nnc(C(F)F)o2)cn1)c1ccccc1 (racemic) was 3.16

Reported chromatographic logP for COc1ccccc1C1(Nc2ncc(-c3nnc(C(F)F)o3)cn2)CC1 was 3.06

Others:
Reported chromatographic logP for FC(F)c1nnc(-c2cnc(NCc3ccccc3Cl)nc2)o1 was 2.95

Reported chromatographic logP for N#Cc1ccc(C2(Nc3ncc(-c4nnc(C(F)F)o4)cn3)CC2)cc1 was 2.33

Reported chromatographic logP for COc1ccccc1CN(OC)c1ncc(-c2nnc(C(F)F)o2)cn1 was 2.97

Reported chromatographic logP for ON(Cc1ccccc1)c1ncc(-c2nnc(C(F)F)o2)cn1 was 2.23

Reported chromatographic logP for CC(Oc1ncc(-c2nnc(C(F)F)o2)cn1)c1ccc(F)cc1 (racemic) was 3.13

Reported chromatographic logP for Fc1ccc(C2(Oc3ncc(-c4nnc(C(F)F)o4)cn3)CC2)cc1 was 3.19

* * *

# assayInfo: Log P by HPLC on reversed phase columns, method [a] (EEC directive 79/831 Annex V.A8)
# Assay type: physicochemical
# testContext: reversed phase HPLC column; method [a], HPLC on reversed phase columns; read-out: logP
propertyName: chromatographic logP
When you answer, write just the number.

Here are 5 compounds together with their reported answers.
Reported chromatographic logP for CC(Nc1ncc(-c2nnc(C(F)F)o2)cn1)c1ccc(F)cc1F (racemic) [I.215] was 3.01

Reported chromatographic logP for CC(Nc1ncc(-c2nnc(C(F)F)o2)cn1)C1(C)CC1 (racemic) [I.186] was 2.91

Reported chromatographic logP for FC(F)c1nnc(-c2cnc(NC3(Cc4ccccc4)CC3)nc2)o1 [I.201] was 2.99

Reported chromatographic logP for Fc1ccc([C@H]2C[C@H]2Nc2ncc(-c3nnc(C(F)F)o3)cn2)cc1 (racemic) [I.206] was 2.97

Reported chromatographic logP for FC(F)Oc1ccc(C2(Nc3ncc(-c4nnc(C(F)F)o4)cn3)CC2)cc1 [I.247] was 2.91

Please find the next compound below.
Reported chromatographic logP for COc1ccccc1C(C)Nc1ncc(-c2nnc(C(F)F)o2)cn1 (racemic) [I.209] was 2.95
